test: Antioxidant activity assessed as DPPH free radical scavenging after 40 mins incubation in dark; type: functional
value.kind: EC50 (µM)
Dear colleague, please return just the value in µM, with no unit written.

Give reported EC50 value for COc1cc2c(cc1OC)C(=O)C(CC1C=CN(Cc3cccc(Cl)c3)C=C1C(N)=O)C2 (stereo unspecified)
90

---

// endpoint pIC50 / system Cholinesterase (Equus caballus)
Please report pIC50 as the negative decimal logarithm of the molar concentration, giving only the number.

compound: COc1cc2c(cc1OC)C(=O)C(Cc1cc[n+](Cc3cccc(C)c3)cc1C(C)=O)C2 (racemic)
assayed.system: Cholinesterase (Equus caballus)
Sequence (P81908 whole entry): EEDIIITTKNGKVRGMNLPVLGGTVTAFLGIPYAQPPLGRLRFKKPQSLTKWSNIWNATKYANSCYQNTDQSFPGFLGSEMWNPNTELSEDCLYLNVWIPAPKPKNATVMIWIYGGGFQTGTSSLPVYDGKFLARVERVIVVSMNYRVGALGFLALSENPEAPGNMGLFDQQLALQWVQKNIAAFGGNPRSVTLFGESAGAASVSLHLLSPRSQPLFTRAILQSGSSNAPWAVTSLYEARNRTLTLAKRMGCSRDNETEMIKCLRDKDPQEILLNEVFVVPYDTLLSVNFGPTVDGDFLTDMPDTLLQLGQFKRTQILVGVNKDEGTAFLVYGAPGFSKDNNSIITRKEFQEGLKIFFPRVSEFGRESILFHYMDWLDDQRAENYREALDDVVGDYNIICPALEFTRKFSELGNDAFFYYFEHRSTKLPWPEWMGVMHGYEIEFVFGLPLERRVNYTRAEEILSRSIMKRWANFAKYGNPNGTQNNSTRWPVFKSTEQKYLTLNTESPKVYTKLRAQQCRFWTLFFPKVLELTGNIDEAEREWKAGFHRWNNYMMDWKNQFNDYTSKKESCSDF
pIC50: 5.22

Please supply the value of reported pIC50 for the item CC(=O)c1c[n+](Cc2ccccc2C)ccc1CC1Cc2cc(C)ccc2C1=O (racemic)
5.42

Please list pIC50 recorded for the compound COC(=O)c1c[n+](Cc2ccccc2)ccc1CC1Cc2cc(OC)c(OC)cc2C1=O (racemic)
5.51

Complete the entry with pIC50 for COc1cc2c(cc1OC)C(=O)C(Cc1cc[n+](Cc3ccccc3Cl)cc1C(C)=O)C2 (racemic)
5.72

Specify reported pIC50 for the compound shown: COC(=O)c1c[n+](Cc2ccccc2C)ccc1CC1Cc2cc(OC)c(OC)cc2C1=O (racemic)
5.75

Return pIC50 for the following compound: CNC(=O)c1c[n+](Cc2ccccc2)ccc1CC1Cc2cc(OC)c(OC)cc2C1=O (racemic)
5.32
